- TESTED_SYSTEM: human IL-1beta (human, UniProt P01584 117-269)
- ASSAY_METHOD_TEXT: SPR (BIAcore); antibody captured by anti-Fc, IL-1beta injected
READOUT_TYPE: koff (s⁻¹)

- BINDER: "huH34-1 (antibody, V domains shown, VH = 01 and VL = 16 read by analogy with huH34-2 (VH 06, VL 16); Humanized) VH: QVQLVQSGAEVKKPGASVKVSCKASGYTFTGYYMHWVRQAPGQGLEWMGYISSYSGFTTYAQKFQGRVTMTRDTSISTAYMELSRLRSDDTAVYYCARSDYYGTSLYWGQGTLVTVSS VL: EIVLTQSPATLSLSPGERATLSCRASSSVSYMHWSQQKPGQAPRLLIYSTSNLASGIPARFSGSGSGTDFTLTISSLEPEDFAVYYCHQWSNYYTFGQGTKLEIK"
  READOUT_TYPE: "koff"
  DISPLAY_UNIT: "s⁻¹"
  VAL: 0.00151
- BINDER: "Canakinumab (antibody, V domains shown) VH: QVQLVESGGGVVQPGRSLRLSCAASGFTFSVYGMNWVRQAPGKGLEWVAIIWYDGDNQYYADSVKGRFTISRDNSKNTLYLQMNGLRAEDTAVYYCARDLRTGPFDYWGQGTLVTVSS VL: EIVLTQSPDFQSVTPKEKVTITCRASQSIGSSLHWYQQKPDQSPKLLIKYASQSFSGVPSRFSGSGSGTDFTLTINSLEAEDAAAYYCHQSSSLPFTFGPGTKVDIKR"
  READOUT_TYPE: "koff"
  DISPLAY_UNIT: "s⁻¹"
  VAL: "5.2e-05"
